Values compiled from PubChem BioAssay (NCI).

Test system: SNB-78 CNS
Test: NCI tumour cell line growth inhibition, 48 h
Measure Name: TGI (µM)

Molecule	Unit Label	Result Modifier	Numeric Readout
O=C1c2ccccc2C(=O)c2sc(Nc3ccc([N+](=O)[O-])cc3)nc21	µM	=	42
COc1cc2cnc3c4cc(OC)c(OC(C)C)cc4ccc3c2cc1OC	µM	>	100
O=c1[nH]c(=O)n(C2OC(CO)C(O)C2O)cc1F (stereo not given)	µM	=	60.1
O=C1C2C3C=C4c5ccccc5N(c5ccccc5)C4([C@@H]2C(=O)N1c1ccc(F)cc1)[C@H]1C(=O)N(c2ccc(F)cc2)C(=O)[C@@H]31 (stereo not given in full)	µM	>	100
CNC(=O)NCCN1N=C(C)/C(=C\c2ccccc2)CC1=O	µM	>	100

----------
Test system: TK-10 renal
Assay: NCI tumour cell line growth inhibition, 48 h
# TGI annotations
Measure Name: TGI

> print(dat)
                                   compound    result
1           O=C1NC(N2CCCCC2)=N/C1=C\c1ccco1  > 100 µM
2  CC(C)(C)OC1=C(OC(C)(C)C)C(O)(c2ccc(Cl)cc2)C1=O (stereo not given)  > 100 µM
3  O=C(COc1cccc(/C=C2\Oc3ccc4ccccc4c3C2=O)c1)c1ccc([N+](=O)[O-])cc1  > 100 µM
4  COC(=O)[C@@H]1[C@H]2CC[C@]3(C)[C@@H](OC(C)=O)CC[C@H]3[C@@H]2CC[C@H]1C(C)=O  > 100 µM
5             CCCCNCCCCCNc1cc(OC)cc2cccnc12   44.5 µM

----------
Tested on: A549 NSCLC
Experiment: NCI tumour cell line growth inhibition, 48 h
Measure Name: TGI

> print(dat)
                                    molecule  system.tested     result
 1  NCCCNc1nc2ccccc2c2c(=O)c3cc(F)cc(Cl)c3sc12     A549 NSCLC    3.55 µM
 2  COc1cc2c(cc1O)C(=O)O[C@@H]1CC=C3CCN(C)[C@H]3[C@H]21     A549 NSCLC    > 25 µM
 3          O=C1c2c(O)cccc2Cc2cc(CO)cc(O)c21     A549 NSCLC    9.08 µM
 4  N#CCCN(CCC#N)c1ccc(/C=C(/NC(=O)Nc2ccccc2Cl)NC(=O)c2cc([N+](=O)[O-])ccc2Cl)cc1     A549 NSCLC   > 100 µM
 5  CC1(C)CC[C@]2(CO)CC[C@]3(C)C(=CC[C@@H]4[C@@]5(C)CCNCC(C)(C)[C@@H]5CC[C@]43C)[C@@H]2C1     A549 NSCLC    22.7 µM
 6           Oc1ccc(/C=N/NC(=S)Nc2cccnc2)nc1     A549 NSCLC   > 100 µM
 7  CN(C)CCNC(=O)c1cccc2c1nc(-c1ccncc1)c1ccccc12     A549 NSCLC    12.6 µM
 8  CC(C)CC1NC(=O)CCC(NC(=O)C(Cc2ccc(O)cc2)NC(=O)OCc2ccccc2)C(=O)NC(Cc2ccccc2)C(=O)NC(Cc2ccccc2)NC1=O (centres undefined)     A549 NSCLC   > 100 µM
 9  COc1cc(OC)nc(-n2c(N)c(C(=O)O)c3ccc([N+](=O)[O-])cc3c2=O)n1     A549 NSCLC   > 100 µM
10  Cc1ccc(S(=O)(=O)NNC(=O)Nc2ccc([N+](=O)[O-])cc2)cc1     A549 NSCLC   > 100 µM
11  CCOC(=O)c1csc(-c2cn(C)c3c2C(=O)C(OC)=CC3=O)n1     A549 NSCLC    97.1 µM
12  COc1ccc(NC(=O)c2cccc(C3CCc4c(cc(OC)c(OC)c4OC)O3)c2)cc1 (centres undefined)     A549 NSCLC   > 100 µM
13  CCOC(=O)c1ccc(N(CCOS(=O)(=O)c2ccc(C)cc2)CCOS(=O)(=O)c2ccc(C)cc2)cc1     A549 NSCLC   > 100 µM
14  O=C(NCc1ccccc1)C1C(=O)C(=O)N(Cc2ccccc2)C1=O (centres undefined)     A549 NSCLC   > 100 µM
15  COc1cccc(CCn2c(N)c(C#N)c3ccc([N+](=O)[O-])cc3c2=O)c1     A549 NSCLC  > 46.4 µM
16  C=C1C(C(=O)O)C1C(=O)O (centres undefined)     A549 NSCLC   > 100 µM
17  CC(=O)O[C@H]1CC[C@]2(C)C3C(=O)C[C@]4(C)[C@@H](C(C)CCC(=O)O)CC[C@@]4(C)[C@@H]3CC[C@H]2C1(C)C (some centres undefined)     A549 NSCLC    > 50 µM
18  COC1C(=O)N(SC)C1c1ccccc1Cl (centres undefined)     A549 NSCLC   > 100 µM
19  CC(=O)[CH-]C(=O)c1ccccc1.CC(=O)[CH-]C(=O)c1ccccc1.CC(=O)[CH-]C(=O)c1ccccc1.[Br-].[Zr+4]     A549 NSCLC   > 100 µM

----------
Tested on: SW-620 colon
Assay: NCI tumour cell line growth inhibition, 48 h; in the data active means GI50 below about 0.43 µM; inactive means the rest
Outcome codes: 1.0 = active, 0.0 = inactive

> print(dat)
                                   compound  system.tested  class.name
1  Clc1ccc(N2N=C(c3cccc(Nc4ccncc4)c3)CC2c2ccc(Br)cc2)cc1 (stereo not drawn)   SW-620 colon         0.0
2  O=C(c1ccc(Nc2nccc(NCCCCNc3ccnc4cc(Cl)ccc34)n2)cc1)N1CCCCC1   SW-620 colon         0.0
3  OCC1OC(n2cnc3c(NCc4ccccc4O)ncnc32)C(O)C1O (stereo not drawn)   SW-620 colon         1.0
4  Nc1nc(N)c(-c2ccc(Cl)c(Cl)c2)c(CP(Cl)(Cl)(Cl)Br)n1   SW-620 colon         0.0
5  O=c1[nH]c(=O)n(C2OC(CO)C(O)C2O)cc1F (stereo not drawn)   SW-620 colon         1.0
6  Cn1cc(-c2nc(-c3cn(C)c4ncccc34)cs2)c2ccccc21   SW-620 colon         0.0
7  CCS(=O)(=O)N1CCN(c2ccc(Nc3ncc(C(N)=O)c(NC4CC4)n3)cc2)CC1   SW-620 colon         0.0
8  CCOC(=O)c1cc2c(n1Cc1cc(OC)cc(OC)c1)-c1oncc1CC2   SW-620 colon         1.0

----------
System: COLO 205 colon
Experiment: NCI tumour cell line growth inhibition, 48 h
Measure Name: TGI

> print(dat)
                                    compound  measure.name     result
 1            C[Si](C)(C)/C=C/CN1C(=O)CCC1=O           TGI   > 100 µM
 2  O=C(O)CCC(NC(=O)c1ccc(CNc2nc3cc(C(F)(F)F)ccc3nc2C(=O)O)cc1)C(=O)O (stereo not given)           TGI   > 100 µM
 3  CN(C(=O)c1ccccc1)c1ccc2c(c1)C(=O)c1ccccc1C2=O           TGI   > 100 µM
 4  C/C(=N\NC(=S)N1CCN(c2ccccn2)CC1)c1cccc2cccnc12           TGI  > 46.1 µM
 5         CCN(CC)CCCNc1cc(OC)c(OC)c2cccnc12           TGI    23.2 µM
 6  CC1(C)CC[C@]2(CO)CC[C@]3(C)C(=CC[C@@H]4[C@@]5(C)CCNCC(C)(C)[C@@H]5CC[C@]43C)[C@@H]2C1           TGI       4 µM
 7         CCOC(=O)c1nc2cc(F)cc(F)c2[nH]c1=O           TGI   > 100 µM
 8  CC1N=C(c2ccccc2)OC1=O (stereo not given)           TGI   > 100 µM
 9  C=C1C(=O)O[C@H]2[C@H]1CC/C(COC(=O)/C=C\C(=O)NCc1ccc(Cn3c(=O)sn(-c4ccc(Cl)cc4)c3=O)cc1)=C\CC[C@@]1(C)O[C@@H]21           TGI    1.59 µM
10  CC1=NNC(=O)C1C1C=C(c2c[nH]c3ccccc23)OC1=O (stereo not given)           TGI   > 100 µM

----------
System: BT-549 breast
Assay: NCI tumour cell line growth inhibition, 48 h; in the data active means GI50 below about 0.43 µM; inactive means the rest
Classes used: t (active), f (inactive)

Compound	Class Name
COc1ccc2nc3ccccc3c(NCc3ccccc3)c2c1	f
CC1(C)CN(CCNc2nccc(-c3c(-c4cccc(O)c4)nc4sccn34)n2)S(=O)(=O)N1	f
Nc1no[n+]([O-])c1-c1nnc2c(n1)-c1ccccc1C2=O	f
COc1cccc(/C=C/C(=O)N2CC(CCl)c3c2cc(N)c2ccccc32)c1 (centres undefined)	t
OCC1OC(n2cnc3c(NCc4ccccc4O)ncnc32)C(O)C1O (centres undefined)	t
CCCCC[C@H]1C/C=C2/C(=O)C(Cl)=C[C@@H]2C/C=C\CCCC(=O)O1	t
CC(=O)c1ccc(Oc2c3ccccc3nc3occc23)cc1	f
Cc1ccc(NC2=CC(=O)C(=O)c3ccccc32)cc1	f
CC(C)(C)OC(=O)N1Cc2cc3ccccc3nc2C1CO (centres undefined)	f
COc1cc(NCCC2CCCCN2)c2ncccc2c1OC (centres undefined)	f
O=C(Nc1ccc(Cl)cc1)N1CCN(c2ccc3nncn3n2)CC1	f
Cc1ccc(/C(=C/C=C(C#N)C#N)Sc2nc3ccccc3s2)cc1	f
NCCCNc1nc2ccccc2c2c(=O)c3cc(F)cc(Cl)c3sc12	f
C=C1C(=O)O[C@H]2[C@H]1CC/C(COC(=O)/C=C\C(=O)NCc1ccc(Cn3c(=O)sn(-c4ccc(Cl)cc4)c3=O)cc1)=C\CC[C@@]1(C)O[C@@H]21	f
O=c1[nH]c2ccccc2n1C1CCN(CCOc2ccccc2)CC1	f
CC[Si](CC)(CC)OC1[C@@H](O[Si](CC)(CC)CC)[C@@H](CNC(=O)NC)O[C@H]1n1cnc2c(NC(=O)Nc3ccccc3)ncnc21 (some centres undefined)	f
C/C=C(\C)C(=O)O[C@@H]1C=CC(=O)O[C@H]1CNC(=O)[C@H](C)O	f
CCC(C(=O)[C@@H](C)[C@@H](O)[C@H](C)[C@@H]1O[C@@H]([C@@H](CC)C(=O)ONC(=O)c2ccccc2)CC[C@@H]1C)[C@H]1O[C@]2(C=CC(=O)[C@]3(CC[C@@](C)([C@H]4CC[C@](O)(CC)[C@H](C)O4)O3)O2)[C@H](C)C[C@@H]1C (some centres undefined)	t
CCCCNCCCCCNc1cc(OC)cc2cccnc12	f
